Parameter MIC: see the listing below.
system: Bacillus subtilis; assay: Antibacterial activity against Bacillus subtilis MTCC 121 for 24 hrs by macrodilution method; assay type: functional; conditions: MTCC 121, 24 h

- STRUCTURE NOTATION: "Cc1ccc(-c2nn(-c3ccc(S(N)(=O)=O)cc3)cc2C(N)=S)cc1"
  MIC [µg/mL]: 128
- STRUCTURE NOTATION: "NC(=S)c1cn(-c2ccc(S(N)(=O)=O)cc2)nc1-c1cccs1"
  MIC [µg/mL]: 64
- STRUCTURE NOTATION: "NC(=S)c1cn(-c2ccc(S(N)(=O)=O)cc2)nc1-c1ccc(F)cc1"
  MIC [µg/mL]: 128
- STRUCTURE NOTATION: "NS(=O)(=O)c1ccc(-n2cc(C(=O)O)c(-c3ccc(Cl)cc3)n2)cc1"
  MIC [µg/mL]: 32
- STRUCTURE NOTATION: "NS(=O)(=O)c1ccc(-n2cc(C(=O)O)c(-c3ccccc3)n2)cc1"
  MIC [µg/mL]: 128
